The following compounds are listed with their measured Conc. at the lover layer values.
# Test system: Caco-2 cell monolayer
# Assay Remarks: Permeation to Caco-2 cell monolayer
# Type: in vitro ADME, human
# Design: unit not given here
# Settings: 4-hour incubation, initial concentration 500 μM in upper layer
No unit in the answer, only the number.

// map CC[C@H](C)[C@H](NC(=O)[C@H](CO)NC(=O)[C@@H](NC(=O)[C@@H]1CCCN1C(=O)[C@H](C)NC(=O)[C@H](CC(N)=O)NC(=O)c1cccc2ccccc12)C(C)C)C(=O)N1CCC[C@H]1C(=O)N[C@@H](CCC(N)=O)C(=O)O [BMEC-NAP0702, α-Naphthoyl-NAPVSIPQ-OH] to recorded Conc. at the lover layer (system: Caco-2 cell monolayer)
0.27

Kindly review the next compound as well.
Which measured Conc. at the lover layer belongs to CC[C@H](C)[C@H](NC(=O)[C@H](CO)NC(=O)[C@@H](NC(=O)[C@@H]1CCCN1C(=O)[C@H](C)NC(=O)[C@H](CC(N)=O)NC(=O)OCC(C)C)C(C)C)C(=O)N1CCC[C@H]1C(=O)N[C@@H](CCC(N)=O)C(N)=O [BMEC-NAP0501, iBu-OCO-NAPVSIPQ-NH2] , tested on Caco-2 cell monolayer?
0.76

###

# Test system: Caco-2 cell monolayer
# Assay Remarks: Permeation to Caco-2 cell monolayer
# Assay type: in vitro ADME, human
# Parameters: unit not given here
# Settings: 4-hour incubation, initial concentration 500 μM in upper layer
Property Name: Conc. at the lover layer

Some compounds with known Conc. at the lover layer results, for comparison:
Reported Conc. at the lover layer for `CC[C@H](C)[C@H](NC(=O)[C@H](CO)NC(=O)[C@@H](NC(=O)[C@@H]1CCCN1C(=O)[C@H](C)NC(=O)[C@H](CC(N)=O)NC(=O)c1ccccc1)C(C)C)C(=O)N1CCC[C@H]1C(=O)N[C@@H](CCC(N)=O)C(=O)O` : what is it?
0.28

I have this compound here, `CC[C@H](C)[C@H](NC(=O)[C@H](CO)NC(=O)[C@@H](NC(=O)[C@@H]1CCCN1C(=O)[C@H](C)NC(=O)[C@H](CC(N)=O)NC(=O)OCc1ccccc1)C(C)C)C(=O)N1CCC[C@H]1C(=O)N[C@@H](CCC(N)=O)C(=O)O` , and I need its recorded Conc. at the lover layer.
0.21

1 = CCCCC(CC)COC(=O)N[C@@H](CC(N)=O)C(=O)N[C@@H](C)C(=O)N1CCC[C@H]1C(=O)N[C@H](C(=O)N[C@@H](CO)C(=O)N[C@H](C(=O)N1CCC[C@H]1C(=O)N[C@@H](CCC(N)=O)C(N)=O)[C@@H](C)CC)C(C)C (stereo partly shown)
2 = CC[C@H](C)[C@H](NC(=O)[C@H](CO)NC(=O)[C@@H](NC(=O)[C@@H]1CCCN1C(=O)[C@H](C)NC(=O)[C@H](CC(N)=O)NC(=O)c1cccs1)C(C)C)C(=O)N1CCC[C@H]1C(=O)N[C@@H](CCC(N)=O)C(=O)O
Out of 1 and 2 , name the one with the higher Conc. at the lover layer. Give the label of your selection.
1
(1: 1.39, 2: 0.24)

###

# System: Caco-2 cell
# Assay Remarks: Stability in the Caco-2 cell system
# Type: in vitro ADME, human
# Settings: 4-hour incubation in Caco-2 Transwell; relative to initial conc. = 100.00 (500 μM)
Property Name: Conc. after 4-hour in Caco-2 cells

Past entries and their recorded results:
For the compound `CCCCOC(=O)N[C@@H](CC(N)=O)C(=O)N[C@@H](C)C(=O)N1CCC[C@H]1C(=O)N[C@H](C(=O)N[C@@H](CO)C(=O)N[C@H](C(=O)N1CCC[C@H]1C(=O)N[C@@H](CCC(N)=O)C(=O)O)[C@@H](C)CC)C(C)C` , what Conc. after 4-hour in Caco-2 cells is on record?
29.05

Given the entry `CCCC(=O)N[C@@H](CC(N)=O)C(=O)N[C@@H](C)C(=O)N1CCC[C@H]1C(=O)N[C@H](C(=O)N[C@@H](CO)C(=O)N[C@H](C(=O)N1CCC[C@H]1C(=O)N[C@@H](CCC(N)=O)C(=O)O)[C@@H](C)CC)C(C)C` , report its measured Conc. after 4-hour in Caco-2 cells.
56.02

a = CCCCCCCCOC(=O)N[C@@H](CC(N)=O)C(=O)N[C@@H](C)C(=O)N1CCC[C@H]1C(=O)N[C@H](C(=O)N[C@@H](CO)C(=O)N[C@H](C(=O)N1CCC[C@H]1C(=O)N[C@@H](CCC(N)=O)C(N)=O)[C@@H](C)CC)C(C)C
b = CCCCCCC(=O)N[C@@H](CC(N)=O)C(=O)N[C@@H](C)C(=O)N1CCC[C@H]1C(=O)N[C@H](C(=O)N[C@@H](CO)C(=O)N[C@H](C(=O)N1CCC[C@H]1C(=O)N[C@@H](CCC(N)=O)C(=O)O)[C@@H](C)CC)C(C)C [BMEC-NAP0106, C6H13CO-NAPVSIPQ-OH]
Could you point out whether the larger Conc. after 4-hour in Caco-2 cells belongs to a or to b ? Answer by quoting the chosen item's label.
a
(a: 76.83, b: 26.74)
